Entry source: patent US8377948B2

System: PC-3 cells
Measurement Protocol: Cell viability / apoptotic death of PC-3 cells in 1% FBS-supplemented RPMI 1640 medium
Assay type: cell-based, human
Measurement Setup: 1% FBS-supplemented medium, read-out: IC50, apoptosis-inducing potency
Assay Metric: pIC50
pIC50 here is simply -log10 of the concentration when that concentration is written in mol/L.

Q) Give the reported pIC50 for this compound. COc1cc2nc(N3CCN(C(=O)C4COc5ccccc5O4)CC3)nc(N)c2cc1OC (stereo not shown)
A) 4.70

* * *

Quick reference: IC50 of the listed items.
System: PC-3 cells
Measurement Protocol: MTT cell viability assay, PC-3 cells in 10% FBS medium
Type: cell-based, human
Measurement Setup: Homo sapiens, PC-3, 48 h, RPMI 1640 with 10% FBS, means ± S.D. (n = 6)
Unit µM implied. Number only.

Consider the worked cases shown below.
COc1cc2nc(N3CCN(S(=O)(=O)c4cccc5c(N(C)C)cccc45)CC3)nc(N)c2cc1OC | 29
CCCCOc1cc2nc(N3CCN(S(=O)(=O)c4ccc(-c5ccccc5)cc4)CC3)nc(N)c2cc1OCCCC | 3.5
COc1cc2nc(N3CCN(C(=O)c4ccc(C(C)(C)C)cc4)CC3)nc(N)c2cc1OC | 47

Q) Give the reported IC50 for this compound. COc1cc2nc(N3CCN(S(=O)(=O)c4ccc(Cl)s4)CC3)nc(N)c2cc1OC
A) 25
